Values compiled from the supplement of paper PMC10567573.

B1: SERPINB5 (parent)
chain: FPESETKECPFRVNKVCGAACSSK

- Variants of: B1
- assay-overview: protein stability index of a GFP-peptide fusion (GPS, HEK-293T) (PSI 1-6); higher = more stable;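 note: lentivirally expressed fusions sorted by FACS into six bins by GFP to DsRed ratio, PSI derived from sequencing read proportions per bin multiplied by bin number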
- measurement-setup: c terminus: a fixed tail appended
Rule: protein stability index of 3 or more gives condition met; anything lower gives condition not met.

- P10T: condition met
- P2H: condition not met
- C9V: condition met
- F1L: condition met
- K7C: condition met

Threshold query (protein stability index >= 3) on S22A condition met

Would you say C17I shows protein stability index at minimum 3? condition met

# bool: protein stability index of R12W >= 3 condition not met

// inclusive: protein stability index at least 3? input: G18N condition not met

Check if protein stability index >= 3 (inclusive). Item: K24H condition not met

Given F1A , state whether its protein stability index is at least 3. condition met
